ASSAYED SYSTEM: T1, Cynomolgus CD3εδ Fc heterodimer (Cy CD3ε Fc / CD3δ Fc-HIS) (cynomolgus, UniProt Q95LI8 22-100)
T1 chain 1: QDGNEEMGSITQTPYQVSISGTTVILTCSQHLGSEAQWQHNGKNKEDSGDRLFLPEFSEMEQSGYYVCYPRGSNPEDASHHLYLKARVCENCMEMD
T1 chain 2: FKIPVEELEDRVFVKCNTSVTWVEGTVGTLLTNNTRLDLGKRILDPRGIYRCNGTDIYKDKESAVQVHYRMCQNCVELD
METHOD SUMMARY: BLI (Octet), IgG on AHC sensor, pH 7.4

| BINDER | koff (s⁻¹) |
| --- | --- |
| LAD9954_P01_B02 (ADI-57438) (antibody, V domains shown, IgG; also called Ab168) VH: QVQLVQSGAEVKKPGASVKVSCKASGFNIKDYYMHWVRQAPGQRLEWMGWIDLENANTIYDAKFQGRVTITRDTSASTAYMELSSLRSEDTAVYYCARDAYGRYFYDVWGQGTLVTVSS VL: DIVMTQSPDSLAVSLGERATINCKSSQSLLHARTGHNYLAWYQQKPGQPPKLLIYWASTRESGVPDRFSGSGSGTDFTLTISSLQAEDVAVYYCKQSYSRRTFGGGTKVEIK | 0.0107 |
